# System: Mycobacterium tuberculosis
# ASSAY_METHOD_TEXT: microbe, parasite or virus in culture
# ASSAY_CONDITIONS: H37Rv
# Description: Antibacterial activity against Mycobacterium tuberculosis H37Rv assessed as inhibition of bacterial growth
The compounds listed here are annotated with their MIC80.
QUANTITY_KIND: MIC80

> print(dat)
                                   compound              assayed.target   result
1  O=c1c(NCc2ccccn2)c(-c2ccc(C(F)(F)F)cc2)c1=O  Mycobacterium tuberculosis   6.2 µM
2  CN(C)CCOc1ncc(Nc2cc(-c3ccccc3)nc3cc(-c4ccc(F)cc4)nn23)cc1F  Mycobacterium tuberculosis   6.2 µM
3  CC(=O)NC[C@H]1CN(c2ccc(N3CCSCC3)c(F)c2)C(=O)O1  Mycobacterium tuberculosis  0.28 µM
4  CC(Nc1nc(N2CCCCC2)nc2ccccc12)c1ccccc1 (centres undefined)  Mycobacterium tuberculosis    25 µM

###

# ASSAY_METHOD_TEXT: Protein binding in mouse plasma
# Type: ADME, cell-free
# ASSAY_CONDITIONS: read-out: PPB (converted)
QUANTITY_KIND: fraction unbound

> print(dat)
                     structure.as.smiles  result.number
1  CCSc1ncc(CN2CCN(c3nc4ccccc4o3)CC2)cn1           0.03

###

# ASSAY_METHOD_TEXT: Kinetic aqueous solubility of the compound
# Type: physicochemical
# ASSAY_CONDITIONS: buffer; read-out: Kinetic_solubility
QUANTITY_KIND: solubility kinetic (µM)

> print(dat)
                     structure.as.smiles       quantity.kind  result.number
1  CCSc1ncc(CN2CCN(c3nc4ccccc4o3)CC2)cn1  solubility kinetic             76

###

# ASSAY_METHOD_TEXT: Metabolic stability in mouse liver microsomes assessed as half life
# Format: ADME, Microsome
QUANTITY_KIND: half-life (min)

> print(dat)
                     structure.as.smiles  result.number
1  CCSc1ncc(CN2CCN(c3nc4ccccc4o3)CC2)cn1             49

###

# ASSAY_METHOD_TEXT: Cytotoxicity against African green monkey Vero cells assessed as reduction in cell viability treated for 3 days by Cell Titer Glo assay
# Format: toxicity, cell-based
# ASSAY_CONDITIONS: chlorocebus sabaeus, time 3 day
QUANTITY_KIND: CC50 at 72 h

> print(dat)
                        structure.as.smiles    result
1  COc1ccn2nc(C)c(C(=O)NCc3ccc(N4CCC(c5ccc(OC(F)(F)F)cc5)CC4)cc3)c2c1  > 100 µM

###

# ASSAY_METHOD_TEXT: Metabolic stability in CD-1 mouse liver microsomes assessed as half life measured for 5 to 40 mins by LC-MS/MS analysis
# Format: ADME, Microsome
# ASSAY_CONDITIONS: time 5-40 min
QUANTITY_KIND: half-life

> print(dat)
                        structure.as.smiles  result
1  O=C(NCCC(F)(F)F)c1ccc(-c2noc(C3CC3)n2)cc1  19 min

###

# ASSAYED_TARGET: Cytochrome P450 3A4 (Homo sapiens, UniProt P08684)
# Sequence (P08684 whole entry): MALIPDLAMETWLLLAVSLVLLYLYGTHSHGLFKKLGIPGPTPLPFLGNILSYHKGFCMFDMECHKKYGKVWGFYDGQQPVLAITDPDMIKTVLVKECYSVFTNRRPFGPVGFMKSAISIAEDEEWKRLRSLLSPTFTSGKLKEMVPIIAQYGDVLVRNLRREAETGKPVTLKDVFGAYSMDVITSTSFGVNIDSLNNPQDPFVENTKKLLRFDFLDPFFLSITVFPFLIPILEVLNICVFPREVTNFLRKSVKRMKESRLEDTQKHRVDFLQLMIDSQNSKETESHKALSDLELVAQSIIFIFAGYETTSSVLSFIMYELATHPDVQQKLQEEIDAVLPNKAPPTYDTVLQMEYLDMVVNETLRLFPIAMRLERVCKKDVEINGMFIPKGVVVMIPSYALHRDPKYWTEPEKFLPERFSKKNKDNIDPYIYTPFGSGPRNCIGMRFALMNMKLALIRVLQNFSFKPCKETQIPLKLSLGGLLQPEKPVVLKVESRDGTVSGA
# ASSAY_METHOD_TEXT: Inhibition of CYP3A4 in human liver microsome using midazolam as substrate incubated for 10 mins in presence of NADP+ by LC-MS/MS analysis
# Type: ADME, microsomes
pIC50: −log10 of the molar value.
QUANTITY_KIND: pIC50

> print(dat)
                        structure.as.smiles  quantity.kind  result
1  CC(C)c1ccc(-c2nc(CN3CCN(c4ccnc5cc(-c6cccnc6)ccc45)CC3)no2)cc1          pIC50  < 4.60

###

# ASSAY_METHOD_TEXT: Cytotoxicity against African green monkey Vero cells treated for 72 hrs by microplate reader method
# Format: toxicity, cell-based
# ASSAY_CONDITIONS: chlorocebus sabaeus
QUANTITY_KIND: CC50 at 72 h

> print(dat)
                     structure.as.smiles    result
1  CCSc1ncc(CN2CCN(c3nc4ccccc4o3)CC2)cn1  > 141 µM

###

# ASSAY_METHOD_TEXT: Cytotoxicity against African green monkey Vero cells treated for 72 hrs by MTT assay
# Type: toxicity, cell-based
# ASSAY_CONDITIONS: chlorocebus sabaeus
QUANTITY_KIND: CC50 at 72 h

> print(dat)
                        structure.as.smiles    result
1  CCOC(=O)NC(=O)c1ccsc1NC(=O)c1nc2cnccc2s1  > 100 µM

###

# ASSAY_METHOD_TEXT: Oral bioavailability in Swiss Webster mouse at 10 mg/kg measured for 0.25 to 24 hrs by LC-MS/MS analysis
# Format: ADME, organism-based
# ASSAY_CONDITIONS: in vivo, time 0.25-24 hrs
QUANTITY_KIND: bioavailability (%)

> print(dat)
                        structure.as.smiles  result.number
1  C[C@@H]1[C@H]2C[C@@H](C[C@H]1NC(=O)c1cc3c(F)cc(F)cc3[nH]1)C2(C)C             96

###

# ASSAY_METHOD_TEXT: Solubility of the compound in PBS at pH 7.4 incubated for 24 hrs by LC-MS analysis
# Format: physicochemical
QUANTITY_KIND: solubility at 24 h (µM)

> print(dat)
                        structure.as.smiles       quantity.kind  result.number
1  O=C(NCCC(F)(F)F)c1ccc(-c2noc(C3CC3)n2)cc1  solubility at 24 h             30

###

# ASSAY_METHOD_TEXT: Metabolic stability in mouse liver microsomes assessed as compound remaining measured after 1 hr in presence of NADP+ by LC-MS/MS analysis
# Assay type: ADME, Microsome
# ASSAY_CONDITIONS: read-out: Stability
QUANTITY_KIND: remaining at 1 h (%)

> print(dat)
                        structure.as.smiles     quantity.kind  result.number
1  CC(C)c1ccc(-c2nc(CN3CCN(c4ccnc5cc(-c6cccnc6)ccc45)CC3)no2)cc1  remaining at 1 h            1.2

###

# ASSAY_METHOD_TEXT: Cytotoxicity against human THP-1 cells assessed as reduction in cell viability treated for 96 hrs by MTT assay
# Format: toxicity, cell-based
QUANTITY_KIND: CC50 at 96 h

> print(dat)
                structure.as.smiles   result
1  O=[N+]([O-])c1cc2cccnc2c2ncccc12  > 25 µM

###

# ASSAY_METHOD_TEXT: Metabolic stability in rat liver microsomes assessed as half life in presence of NADPH regenerating system measured for 5 to 60 mins by LC/MS/MS analysis
# Assay type: ADME, Microsome
# ASSAY_CONDITIONS: time 5-60 min
QUANTITY_KIND: half-life (min)

> print(dat)
                        structure.as.smiles  unit.info  result.number
1  COc1ccc(OCc2nn3c(-c4ccc(Br)cc4)nnc3s2)cc1        min             17

###

# ASSAYED_TARGET: Voltage-gated inwardly rectifying potassium channel KCNH2 (Homo sapiens, UniProt Q12809)
# Sequence (Q12809 whole entry): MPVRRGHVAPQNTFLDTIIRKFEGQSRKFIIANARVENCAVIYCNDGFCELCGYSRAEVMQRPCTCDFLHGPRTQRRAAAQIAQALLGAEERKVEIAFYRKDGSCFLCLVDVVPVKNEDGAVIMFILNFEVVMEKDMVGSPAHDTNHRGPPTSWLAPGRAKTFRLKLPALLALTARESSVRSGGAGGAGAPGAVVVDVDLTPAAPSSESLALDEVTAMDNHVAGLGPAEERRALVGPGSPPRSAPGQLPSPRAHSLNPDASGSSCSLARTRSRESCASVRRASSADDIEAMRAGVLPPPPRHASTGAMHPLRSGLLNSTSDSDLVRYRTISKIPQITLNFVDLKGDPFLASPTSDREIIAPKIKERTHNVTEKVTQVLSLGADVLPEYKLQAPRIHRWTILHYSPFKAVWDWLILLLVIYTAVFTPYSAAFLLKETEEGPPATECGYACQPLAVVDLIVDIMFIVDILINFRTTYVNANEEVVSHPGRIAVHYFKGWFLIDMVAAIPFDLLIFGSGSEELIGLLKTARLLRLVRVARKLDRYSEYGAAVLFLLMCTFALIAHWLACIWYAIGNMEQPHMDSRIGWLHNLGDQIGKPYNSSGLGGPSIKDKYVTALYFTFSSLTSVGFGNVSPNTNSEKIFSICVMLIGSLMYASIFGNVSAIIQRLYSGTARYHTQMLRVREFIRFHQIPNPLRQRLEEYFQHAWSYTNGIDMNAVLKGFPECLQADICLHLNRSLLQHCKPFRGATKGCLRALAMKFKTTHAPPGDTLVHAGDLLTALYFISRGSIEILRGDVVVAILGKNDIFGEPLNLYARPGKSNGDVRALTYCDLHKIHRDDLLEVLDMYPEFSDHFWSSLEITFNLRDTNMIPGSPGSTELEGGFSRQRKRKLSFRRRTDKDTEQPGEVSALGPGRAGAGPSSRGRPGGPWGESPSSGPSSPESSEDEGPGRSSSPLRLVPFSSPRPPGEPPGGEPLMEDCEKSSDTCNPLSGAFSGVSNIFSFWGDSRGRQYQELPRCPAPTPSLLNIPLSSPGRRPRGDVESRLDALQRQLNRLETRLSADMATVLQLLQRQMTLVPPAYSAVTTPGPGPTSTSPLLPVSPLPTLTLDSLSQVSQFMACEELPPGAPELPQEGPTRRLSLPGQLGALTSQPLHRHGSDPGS
# ASSAY_METHOD_TEXT: Inhibition of hERG expressed in human HEK293 cells by manual patch clamp method
# Assay type: toxicity, cell-based
pIC50: −log10 of the molar value.
QUANTITY_KIND: pIC50

> print(dat)
                        structure.as.smiles                            assayed.target  quantity.kind  result
1  COc1ccn2nc(C)c(C(=O)NCc3ccc(N4CCC(c5ccc(OC(F)(F)F)cc5)CC4)cc3)c2c1  Voltage-gated inwardly rectifying potassium channel KCNH2 (Homo sapiens, UniProt Q12809)          pIC50  < 4.52

###

# ASSAY_METHOD_TEXT: Metabolic stability in human liver S9 microsomes assessed as half life in presence of NADPH by LC-MS/MS analysis
# Format: ADME
QUANTITY_KIND: half-life (min)

> print(dat)
                        structure.as.smiles  quantity.kind  result.number
1  Cc1cn2c(C(=O)NCc3ccc(N4CCN(c5ccc(C(F)(F)F)cn5)CC4)c(F)c3)c(C)nc2s1      half-life             28

###

# ASSAY_METHOD_TEXT: Cytotoxicity against African green monkey Vero cells treated for 2 days by Cell Titer Glo assay
# Type: toxicity, cell-based
# ASSAY_CONDITIONS: chlorocebus sabaeus, time 2 day
QUANTITY_KIND: CC50 at 48 h

> print(dat)
                        structure.as.smiles  quantity.kind    result
1  Cc1cn2c(C(=O)NCc3ccc(N4CCN(c5ccc(C(F)(F)F)cn5)CC4)c(F)c3)c(C)nc2s1   CC50 at 48 h  > 100 µM
